This listing pairs molecules with measured pEC50.
target: Replicase polyprotein 1ab (Severe acute respiratory syndrome coronavirus 2, UniProt P0DTD1)
Scale note: pEC50 = -log10(concentration in M).

Study these solved cases before continuing.
>>> endpoint_value("O=C[C@H](C[C@@H]1CCNC1=O)NC(=O)[C@H]1[C@@H]2CCC[C@H]2CN1C(=O)COc1ccc(Cl)cc1 [MI-28]")
7.38
>>> endpoint_value("CC1(C)[C@@H]2[C@H](C(=O)N[C@H](C=O)C[C@@H]3CCNC3=O)N(C(=O)COc3ccc(Cl)cc3)C[C@@H]21 [MI-12]")
7.01
>>> endpoint_value("O=C[C@H](C[C@@H]1CCNC1=O)NC(=O)[C@H]1[C@@H]2CCC[C@H]2CN1C(=O)COc1ccc(Cl)c(Cl)c1 [MI-31]")
7.21
>>> endpoint_value("CC1(C)[C@@H]2[C@H](C(=O)N[C@H](C=O)C[C@@H]3CCNC3=O)N(C(=O)COc3ccc4ccccc4c3)C[C@@H]21 [11b]")
7.12

Continue with the molecule presented below.
[ask] Return reported pEC50; argument: CC1(C)[C@@H]2[C@H](C(=O)N[C@H](C=O)C[C@@H]3CCNC3=O)N(C(=O)COc3ccc(Cl)cc3Cl)C[C@@H]21 [MI-14]
[reply] 7.07

###

Entries below carry reported pIC50 on UniProt:P0DTD1.
Here pIC50 is given on a logarithmic scale as minus log10 of the concentration in mol/L.

The cases that follow already have their pIC50 on record.
>>> endpoint_value("CC1(C)[C@@H]2[C@H](C(=O)N[C@H](C=O)C[C@@H]3CCNC3=O)N(C(=O)COc3ccc(C(F)(F)F)cc3)C[C@@H]21 [MI-07]")
7.37
>>> endpoint_value("O=C[C@H](C[C@@H]1CCNC1=O)NC(=O)[C@H]1[C@@H]2CCC[C@H]2CN1C(=O)COc1ccc(Cl)cc1F [MI-29]")
7.46
>>> endpoint_value("CC1(C)[C@@H]2[C@H](C(=O)N[C@H](C=O)C[C@@H]3CCNC3=O)N(C(=O)COc3ccc(Cl)c(Cl)c3)C[C@@H]21 [MI-13]")
7.92

Okay, now this compound:
[ask] Look at this compound and give its reported pIC50. CC1(C)[C@@H]2[C@H](C(=O)N[C@H](C=O)C[C@@H]3CCNC3=O)N(C(=O)COc3ccc(Cl)cc3Cl)C[C@@H]21 [MI-14]
[reply] 7.89

###

pIC50, Replicase polyprotein 1ab (Severe acute respiratory syndrome coronavirus 2), per-entry values.
Scale note: pIC50 = -log10(concentration in M).

Example cases with answers are listed next.
>>> endpoint_value("Cc1cc(Cl)ccc1OCC(=O)N1C[C@@H]2CCC[C@H]2[C@@H]1C(=O)N[C@H](C=O)C[C@@H]1CCNC1=O [MI-32]")
7.70
>>> endpoint_value("O=C[C@H](C[C@@H]1CCNC1=O)NC(=O)[C@H]1[C@@H]2CCC[C@H]2CN1C(=O)COc1ccc2c(c1)OCCO2 [MI-27]")
7.03
>>> endpoint_value("COc1ccc(OCC(=O)N2C[C@H]3[C@@H]([C@@H]2C(=O)N[C@H](C=O)C[C@@H]2CCNC2=O)C3(C)C)cc1OC [MI-06]")
7.82
>>> endpoint_value("O=C[C@H](C[C@@H]1CCNC1=O)NC(=O)[C@H]1[C@@H]2CCC[C@H]2CN1C(=O)c1cc2ccccc2[nH]1 [MI-16]")
6.82
>>> endpoint_value("O=C[C@H](C[C@@H]1CCNC1=O)NC(=O)[C@H]1[C@@H]2CCC[C@H]2CN1C(=O)CCc1ccc(F)c(F)c1 [MI-22]")
7.77

[ask] Any idea what its pIC50 is? The molecule is CC1(C)[C@@H]2[C@H](C(=O)N[C@H](C=O)C[C@@H]3CCNC3=O)N(C(=O)CCc3cccc(F)c3)C[C@@H]21 [MI-03]
[reply] 7.77

[ask] What about CC1(C)[C@@H]2[C@H](C(=O)N[C@H](C=O)C[C@@H]3CCNC3=O)N(C(=O)COc3ccc(Cl)cc3)C[C@@H]21 [MI-12] ?
[reply] 7.72

###

Entries and their IC50
biological target: Replicase polyprotein 1ab (Severe acute respiratory syndrome coronavirus 2, UniProt P0DTD1)
# unit: nM | format: bare number

>>> endpoint_value("COc1ccc(OC(C)C(=O)N2C[C@@H]3CCC[C@H]3[C@@H]2C(=O)N[C@H](C=O)C[C@@H]2CCNC2=O)cc1 (some centres undefined)")
69
>>> endpoint_value("CC1(C)[C@@H]2[C@H](C(=O)N[C@H](C=O)C[C@@H]3CCNC3=O)N(C(=O)c3ccc4ccccc4c3)C[C@@H]21")
453
>>> endpoint_value("O=C[C@H](C[C@@H]1CCNC1=O)NC(=O)[C@H]1[C@@H]2CCC[C@H]2CN1C(=O)COc1ccc(Cl)c(Cl)c1")
30

Let's switch to this compound now.
[ask] Which measured IC50 value corresponds to O=C[C@H](C[C@@H]1CCNC1=O)NC(=O)[C@H]1[C@@H]2CCC[C@H]2CN1C(=O)c1cccnc1 ?
[reply] 749

###

UniProt:P0DTD1 pIC50 data
Remember, pIC50 is on a log scale: it is -log10 of the molar concentration.

>>> endpoint_value("COc1ccc(OCC(=O)N2C[C@H]3[C@@H]([C@@H]2C(=O)N[C@H](C=O)C[C@@H]2CCNC2=O)C3(C)C)cc1F")
7.43
>>> endpoint_value("CC1(C)[C@@H]2[C@H](C(=O)N[C@H](C=O)C[C@@H]3CCNC3=O)N(C(=O)COc3cc(F)cc(F)c3)C[C@@H]21")
7.72
>>> endpoint_value("CC1(C)[C@@H]2[C@H](C(=O)N[C@H](C=O)C[C@@H]3CCNC3=O)N(C(=O)COc3ccc(F)c(F)c3)C[C@@H]21")
7.89

[ask] What pIC50 appears in the records for this compound with UniProt:P0DTD1? COc1ccc(OCC(=O)N2C[C@@H]3CCC[C@H]3[C@@H]2C(=O)N[C@H](C=O)C[C@@H]2CCNC2=O)cc1
[reply] 7.44

[ask] CN(C)c1ccc(CCC(=O)N2C[C@@H]3CCC[C@H]3[C@@H]2C(=O)N[C@H](C=O)C[C@@H]2CCNC2=O)cc1 ?
[reply] 6.42

[ask] // same read-out, input: O=C[C@H](C[C@@H]1CCNC1=O)NC(=O)[C@H]1[C@@H]2CCC[C@H]2CN1C(=O)c1cc2ccccn2n1
[reply] 6.52

[ask] Same question for CC1(C)[C@@H]2[C@H](C(=O)N[C@H](C=O)C[C@@H]3CCNC3=O)N(C(=O)COc3ccc(Br)cc3Cl)C[C@@H]21 please.
[reply] 7.89

###

biological target: Replicase polyprotein 1ab (Severe acute respiratory syndrome coronavirus 2, UniProt P0DTD1)
Listed here are molecules together with their documented pIC50.
Conceptually, pIC50 converts a concentration in mol/L into minus its log10.

Consider the reported pIC50 for these molecules:
>>> endpoint_value("CC1(C)[C@@H]2[C@H](C(=O)N[C@H](C=O)C[C@@H]3CCNC3=O)N(C(=O)COc3ccc(Cl)c(Br)c3)C[C@@H]21")
7.29
>>> endpoint_value("COc1ccc(/C=C/C(=O)N2C[C@@H]3CCC[C@H]3[C@@H]2C(=O)N[C@H](C=O)C[C@@H]2CCNC2=O)c(OC)c1")
6.71

[ask] So what's the measured pIC50 for this one? O=C[C@H](C[C@@H]1CCNC1=O)NC(=O)[C@H]1[C@@H]2CCC[C@H]2CN1C(=O)/C=C/c1ccccc1
[reply] 6.28

[ask] Same question, CNc1ccc(/C=C/C(=O)N2C[C@@H]3CCC[C@H]3[C@@H]2C(=O)N[C@H](C=O)C[C@@H]2CCNC2=O)cc1 this time
[reply] 6.43

###

target: Replicase polyprotein 1ab (Severe acute respiratory syndrome coronavirus 2); assay: scanning fluorimetry assay of HPAEpiC cells
// EC50 lookup, one value per entry
Lab book: enter the figure in nM, no units written.

Take a look at these entries with their results.
>>> endpoint_value("O=C[C@H](C[C@@H]1CCNC1=O)NC(=O)[C@H]1[C@@H]2CCC[C@H]2CN1C(=O)COc1ccc(Cl)c(Cl)c1")
0.4
>>> endpoint_value("O=C[C@H](C[C@@H]1CCNC1=O)NC(=O)[C@H]1[C@@H]2CCC[C@H]2CN1C(=O)COc1ccc(Cl)cc1")
2.2
>>> endpoint_value("CC1(C)[C@@H]2[C@H](C(=O)N[C@H](C=O)C[C@@H]3CCNC3=O)N(C(=O)COc3ccc(Cl)cc3)C[C@@H]21")
7.3

Pending molecule:
[ask] Requested read-out EC50, target or system Replicase polyprotein 1ab (Severe acute respiratory syndrome coronavirus 2), entry CC1(C)[C@@H]2[C@H](C(=O)N[C@H](C=O)C[C@@H]3CCNC3=O)N(C(=O)COc3ccc(Cl)cc3Cl)C[C@@H]21
[reply] 0.3
